# system: T1, Boi2, P39969
# T1 sequence (P39969 32-116, looked up): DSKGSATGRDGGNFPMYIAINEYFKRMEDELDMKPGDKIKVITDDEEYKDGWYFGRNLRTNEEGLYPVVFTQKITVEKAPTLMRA
# test.summary: SPOT array
# measurement.conditions: median of control spots 1161

{"binder": "PSRRDSLSIPRAVDA", "SPOT intensity": 1}
{"binder": "RVRKTHVPASKRPSG", "SPOT intensity": 1}
{"binder": "NMLKKKPLKKPLKRF", "SPOT intensity": 1}
{"binder": "VFQFQMPTTPISTKM", "SPOT intensity": 0}

# credit: paper PMC2756588
